Items are presented alongside their recorded Short-time stability (24h, RT, without daylight) Accuracy [%].
- Experimental protocol: Short-term stability in spiked pooled human plasma (bench-top, 4 °C, 56 °C)
- Protocol conditions: validation standard LLOV
Measured endpoint: Short-time stability (24h, RT, without daylight) Accuracy [%] (%)

{"columns": ["Compound", "Measurement"],
 "data": [
  ["NC(=O)c1cccc2cn(-c3ccc([C@@H]4CCCNC4)cc3)nc12 [Niraparib]", 91.9],
  ["O=C(c1ccc(F)c(F)c1Nc1ccc(I)cc1F)N1CC(O)([C@@H]2CCCCN2)C1 [Cobimetinib]", 99.8],
  ["Cc1cn(-c2cc(NC(=O)c3ccc(C)c(Nc4nccc(-c5cccnc5)n4)c3)cc(C(F)(F)F)c2)cn1 [Nilotinib]", 96.7],
  ["C=CC(=O)Nc1cc(Nc2nccc(-c3cn(C)c4ccccc34)n2)c(OC)cc1N(C)CCN(C)C [Osimertinib]", 60.5],
  ["N#CC[C@H](C1CCCC1)n1cc(-c2ncnc3[nH]ccc23)cn1 [Ruxolitinib]", 105.0],
  ["CS(=O)(=O)c1ccc(C(=O)Nc2ccc(Cl)c(-c3ccccn3)c2)c(Cl)c1 [Vismodegib]", 99.6],
  ["Nc1cccc2c1C(=O)N(C1CCC(=O)NC1=O)C2=O (stereo not shown) [Pomalidomide]", 42.6],
  ["O=C(Nc1cnn2ccc(N3CCC[C@@H]3c3cc(F)ccc3F)nc12)N1CC[C@H](O)C1 [Larotrectinib]", 100.1],
  ["C[C@]12CC[C@H](O)CC1=CC[C@@H]1[C@@H]2CC[C@]2(C)C(c3cccnc3)=CC[C@@H]12 [Abiraterone]", 105.2],
  ["COc1cc2ncnc(Nc3ccc(F)c(Cl)c3)c2cc1OCCCN1CCOCC1 [Gefitinib]", 83.7],
  ["Cc1nc(Nc2ncc(C(=O)Nc3c(C)cccc3Cl)s2)cc(N2CCN(CCO)CC2)n1 [Dasatinib]", 115.9],
  ["CNC(=O)c1cc(Oc2ccc(NC(=O)Nc3ccc(Cl)c(C(F)(F)F)c3)c(F)c2)ccn1 [Regorafenib]", 80.3],
  ["Cc1cc(Nc2ncc(Cl)c(Nc3ccccc3S(=O)(=O)C(C)C)n2)c(OC(C)C)cc1C1CCNCC1 [Ceritinib]", 77.7]
]}

###

- Experimental protocol: Autosampler stability of ready for injection samples
- Type: physicochemical, human
- Protocol conditions: validation standard ULOV
Measured endpoint: Autosampler (72h, 4°C) Accuracy [%] (%)

{"columns": ["Molecule", "Measurement"],
 "data": [
  ["CC(=O)c1c(C)c2cnc(Nc3ccc(N4CCNCC4)cn3)nc2n(C2CCCC2)c1=O [Palbociclib]", 102.9],
  ["CNC(=O)c1cc(Oc2ccc(NC(=O)Nc3ccc(Cl)c(C(F)(F)F)c3)cc2)ccn1 [Sorafenib]", 98.3],
  ["COC(=O)N[C@@H](C)CNc1nccc(-c2cn(C(C)C)nc2-c2cc(Cl)cc(NS(C)(=O)=O)c2F)n1 [Encorafenib]", 102.4],
  ["COc1cc2c(Nc3ccc(Br)cc3F)ncnc2cc1OCC1CCN(C)CC1 [Vandetanib]", 94.4]
]}

###

- Experimental protocol: Autosampler stability of ready for injection samples
- Assay type: physicochemical, human
- Protocol conditions: validation standard 2xLLOV

{"columns": ["Molecule", "Value units", "Autosampler (24h, 4°C) Accuracy [%]"],
 "data": [
  ["Cn1cnc2c(F)c(Nc3ccc(Br)cc3F)c(C(=O)NOCCO)cc21", "%", 104.7],
  ["CO[C@@H]1[C@H](N(C)C(=O)c2ccccc2)C[C@H]2O[C@]1(C)n1c3ccccc3c3c4c(c5c6ccccc6n2c5c31)C(=O)NC4", "%", 103.3],
  ["COc1cc2nccc(Oc3ccc(NC(=O)Nc4cc(C)on4)c(Cl)c3)c2cc1OC", "%", 101.5],
  ["Nc1cccc2c1C(=O)N(C1CCC(=O)NC1=O)C2=O (stereo not shown) [Pomalidomide]", "%", 104.1]
]}

###

Items are presented alongside their recorded Long-term stability, 2 month, -20°C Accuracy [%].
- Experimental protocol: Long-term stability in spiked pooled human plasma
- Protocol conditions: validation standard LLOV
Measured endpoint: Long-term stability, 2 month, -20°C Accuracy [%] (%)

{"columns": ["Smiles data", "Measurement"],
 "data": [
  ["CN(C)C/C=C/C(=O)Nc1cc2c(Nc3ccc(F)c(Cl)c3)ncnc2cc1O[C@H]1CCOC1", 68.4],
  ["O=c1[nH]c(=O)n([C@H]2C[C@H](O)[C@@H](CO)O2)cc1C(F)(F)F", 79.5],
  ["CCN1CCN(Cc2ccc(Nc3ncc(F)c(-c4cc(F)c5nc(C)n(C(C)C)c5c4)n3)nc2)CC1", 107.2],
  ["CNC(=O)c1cc(Oc2ccc(NC(=O)Nc3ccc(Cl)c(C(F)(F)F)c3)cc2)ccn1", 109.0]
]}

###

- Experimental protocol: Autosampler stability of ready for injection samples
- Type: physicochemical, human
- Protocol conditions: validation standard MOV
Items are presented alongside their recorded Autosampler (72h, 4°C) Accuracy [%].

{"columns": ["Molecule", "Autosampler (72h, 4°C) Accuracy [%], %"],
 "data": [
  ["CNC(=O)c1ccc(N2C(=S)N(c3ccc(C#N)c(C(F)(F)F)c3)C(=O)C2(C)C)cc1F [Enzalutamide]", 105.7],
  ["CCCS(=O)(=O)Nc1ccc(F)c(C(=O)c2c[nH]c3ncc(-c4ccc(Cl)cc4)cc23)c1F", 101.8],
  ["NC(=O)c1cccc2cn(-c3ccc([C@@H]4CCCNC4)cc3)nc12", 100.5],
  ["C[C@]12CC[C@H](O)CC1=CC[C@@H]1[C@@H]2CC[C@]2(C)C(c3cccnc3)=CC[C@@H]12", 101.6],
  ["O=C(c1cc(Cc2n[nH]c(=O)c3ccccc23)ccc1F)N1CCN(C(=O)C2CC2)CC1", 98.0],
  ["Cc1ccc(Nc2nccc(N(C)c3ccc4c(C)n(C)nc4c3)n2)cc1S(N)(=O)=O", 97.9],
  ["COc1cc2c(Nc3ccc(Br)cc3F)ncnc2cc1OCC1CCN(C)CC1", 101.8],
  ["Cc1c(C(=O)Nc2ccc(N3C[C@@H](C)O[C@@H](C)C3)nc2)cccc1-c1ccc(OC(F)(F)F)cc1", 101.1],
  ["COc1cc2ncnc(Nc3ccc(F)c(Cl)c3)c2cc1NC(=O)/C=C/CN1CCCCC1", 100.5],
  ["CS(=O)(=O)c1ccc(C(=O)Nc2ccc(Cl)c(-c3ccccn3)c2)c(Cl)c1", 107.5],
  ["Nc1cccc2c1C(=O)N(C1CCC(=O)NC1=O)C2=O (stereo not shown) [Pomalidomide]", 97.7],
  ["CC(=O)Nc1cccc(-n2c(=O)n(C3CC3)c(=O)c3c(Nc4ccc(I)cc4F)n(C)c(=O)c(C)c32)c1", 103.5],
  ["O=C1CN2Cc3c(ccc(Cl)c3Cl)N=C2N1 [Anagrelide]", 96.8],
  ["CCc1cc2c(cc1N1CCC(N3CCOCC3)CC1)C(C)(C)c1[nH]c3cc(C#N)ccc3c1C2=O", 104.1],
  ["Nc1cccc2c1CN(C1CCC(=O)NC1=O)C2=O (stereo not shown) [Lenalidomide]", 100.0],
  ["CCC1=C[C@@H]2CN(C1)Cc1c([nH]c3ccccc13)[C@@](C(=O)OC)(c1cc3c(cc1OC)N(C)[C@H]1[C@@](O)(C(=O)OC)[C@H](OC(C)=O)[C@]4(CC)C=CCN5CC[C@]31[C@@H]54)C2", 99.6]
]}

###

- Experimental protocol: Autosampler stability of ready for injection samples
- Format: physicochemical, human
- Protocol conditions: validation standard 2xLLOV
Measured endpoint: Autosampler (24h, 4°C) Accuracy [%] (%)

{"columns": ["Smiles data", "Value units", "Measurement"],
 "data": [
  ["CNC(=O)c1ccccc1Sc1ccc2c(/C=C/c3ccccn3)n[nH]c2c1", "%", 101.2],
  ["Cc1ccc(NC(=O)c2ccc(CN3CCN(C)CC3)cc2)cc1Nc1nccc(-c2cccnc2)n1", "%", 115.2],
  ["CCC1=C[C@@H]2CN(C1)Cc1c([nH]c3ccccc13)[C@@](C(=O)OC)(c1cc3c(cc1OC)N(C)[C@H]1[C@@](O)(C(=O)OC)[C@H](OC(C)=O)[C@]4(CC)C=CCN5CC[C@]31[C@@H]54)C2", "%", 89.9]
]}

###

Items are presented alongside their recorded Long-term stability, 1 month, -80°C Accuracy [%].
- Experimental protocol: Long-term stability in spiked pooled human plasma
- Protocol conditions: validation standard ULOV
Measured endpoint: Long-term stability, 1 month, -80°C Accuracy [%] (%)

{"columns": ["Molecule", "Measurement"],
 "data": [
  ["Cc1cc(Nc2ncc(Cl)c(Nc3ccccc3S(=O)(=O)C(C)C)n2)c(OC(C)C)cc1C1CCNCC1 [Ceritinib]", 94.0],
  ["COc1cc2c(Nc3ccc(Br)cc3F)ncnc2cc1OCC1CCN(C)CC1 [Vandetanib]", 88.0],
  ["Cc1ccc(Nc2nccc(N(C)c3ccc4c(C)n(C)nc4c3)n2)cc1S(N)(=O)=O [Pazopanib]", 93.0],
  ["O=C(c1ccc(F)c(F)c1Nc1ccc(I)cc1F)N1CC(O)([C@@H]2CCCCN2)C1 [Cobimetinib]", 97.3],
  ["Cc1ccc(NC(=O)c2ccc(CN3CCN(C)CC3)cc2)cc1Nc1nccc(-c2cccnc2)n1 [Imatinib]", 79.8],
  ["Cc1c(C(=O)Nc2ccc(N3C[C@@H](C)O[C@@H](C)C3)nc2)cccc1-c1ccc(OC(F)(F)F)cc1 [Sonidegib]", 105.4],
  ["CO[C@@H]1[C@H](N(C)C(=O)c2ccccc2)C[C@H]2O[C@]1(C)n1c3ccccc3c3c4c(c5c6ccccc6n2c5c31)C(=O)NC4 [Midostaurin]", 103.4],
  ["COc1cc2ncnc(Nc3ccc(F)c(Cl)c3)c2cc1OCCCN1CCOCC1 [Gefitinib]", 93.5],
  ["Nc1cccc2c1CN(C1CCC(=O)NC1=O)C2=O (stereo not shown) [Lenalidomide]", 88.5],
  ["CN(C)C(=O)c1cc2cnc(Nc3ccc(N4CCNCC4)cn3)nc2n1C1CCCC1 [Ribociclib]", 90.7],
  ["CC1(C)CCC(CN2CCN(c3ccc(C(=O)NS(=O)(=O)c4ccc(NCC5CCOCC5)c([N+](=O)[O-])c4)c(Oc4cnc5[nH]ccc5c4)c3)CC2)=C(c2ccc(Cl)cc2)C1 [Venetoclax]", 102.7],
  ["CNC(=O)c1ccccc1Sc1ccc2c(/C=C/c3ccccn3)n[nH]c2c1 [Axitinib]", 87.13],
  ["COc1cc2nccc(Oc3ccc(NC(=O)C4(C(=O)Nc5ccc(F)cc5)CC4)cc3)c2cc1OC [Cabozantinib]", 93.1],
  ["COc1cc2ncnc(Nc3ccc(F)c(Cl)c3)c2cc1NC(=O)/C=C/CN1CCCCC1 [Dacomitinib]", 93.2],
  ["CN(C)C/C=C/C(=O)Nc1cc2c(Nc3ccc(F)c(Cl)c3)ncnc2cc1O[C@H]1CCOC1 [Afatinib]", 91.2],
  ["Cc1ccc(C(=O)Nc2ccc(CN3CCN(C)CC3)c(C(F)(F)F)c2)cc1C#Cc1cnc2cccnn12 [Ponatinib]", 90.8],
  ["C=CC(=O)Nc1cc(Nc2nccc(-c3cn(C)c4ccccc34)n2)c(OC)cc1N(C)CCN(C)C [Osimertinib]", 93.2],
  ["CC(C)(C)c1nc(-c2cccc(NS(=O)(=O)c3c(F)cccc3F)c2F)c(-c2ccnc(N)n2)s1 [Dabrafenib]", 92.2],
  ["CCCS(=O)(=O)Nc1ccc(F)c(C(=O)c2c[nH]c3ncc(-c4ccc(Cl)cc4)cc23)c1F [Vemurafenib]", 101.7],
  ["O=c1[nH]c(=O)n([C@H]2C[C@H](O)[C@@H](CO)O2)cc1C(F)(F)F [Trifluridine]", 88.8],
  ["Cn1cnc2c(F)c(Nc3ccc(Br)cc3F)c(C(=O)NOCCO)cc21 [Binimetinib]", 97.2],
  ["CNC(=O)c1ccc(N2C(=S)N(c3cnc(C#N)c(C(F)(F)F)c3)C(=O)C23CCC3)cc1F [Apalutamide]", 90.2],
  ["CCc1cc2c(cc1N1CCC(N3CCOCC3)CC1)C(C)(C)c1[nH]c3cc(C#N)ccc3c1C2=O [Alectinib]", 81.7],
  ["CCC1=C[C@@H]2CN(C1)Cc1c([nH]c3ccccc13)[C@@](C(=O)OC)(c1cc3c(cc1OC)N(C)[C@H]1[C@@](O)(C(=O)OC)[C@H](OC(C)=O)[C@]4(CC)C=CCN5CC[C@]31[C@@H]54)C2 [Vinorelbine]", 92.0],
  ["NC(=O)c1cccc2cn(-c3ccc([C@@H]4CCCNC4)cc3)nc12 [Niraparib]", 98.5],
  ["Cc1cn(-c2cc(NC(=O)c3ccc(C)c(Nc4nccc(-c5cccnc5)n4)c3)cc(C(F)(F)F)c2)cn1 [Nilotinib]", 90.9],
  ["COc1cc(N2CCC(N3CCN(C)CC3)CC2)ccc1Nc1ncc(Cl)c(Nc2ccccc2P(C)(C)=O)n1 [Brigatinib]", 95.0],
  ["C[C@H]1Oc2cc(cnc2N)-c2c(nn(C)c2C#N)CN(C)C(=O)c2ccc(F)cc21 [Lorlatinib]", 87.4],
  ["Nc1cccc2c1C(=O)N(C1CCC(=O)NC1=O)C2=O (stereo not shown) [Pomalidomide]", 89.1],
  ["CCN(CC)CCNC(=O)c1c(C)[nH]c(/C=C2\\C(=O)Nc3ccc(F)cc32)c1C [Sunitinib]", 109.0],
  ["O=C1CN2Cc3c(ccc(Cl)c3Cl)N=C2N1 [Anagrelide]", 90.8]
]}
